Reference source for all entries: patent US7183260B2

# TARGET OR SYSTEM: UniProt P42574
# ASSAY INFO: Dissociation constant Ki and irreversible rate constant k3 for irreversible inhibitors (CPP32)
# Type: biochemical
# MEASUREMENT CONTEXT: continuous assay 60 min, reaction initiated by adding enzyme to substrate-inhibitor mixture

{"columns": ["RECORD SMILES", "UNIT ABBREVIATION", "Ki"],
 "data": [
  ["C[C@H](NC(=O)C(=O)Nc1cc(C(F)(F)F)ccc1N1CCOCC1)C(=O)N[C@@H](CC(=O)O)C(=O)COP(=O)(c1ccccc1)c1ccccc1", "nM", 112],
  ["CC(C)[C@H](NC(=O)C(=O)Nc1cnccn1)C(=O)N[C@@H](CC(=O)O)C(=O)COc1c(F)c(F)cc(F)c1F", "nM", 60],
  ["CC(C)[C@H](NC(=O)C(=O)Nc1ccccc1Cc1ccccc1)C(=O)N[C@@H](CC(=O)O)C(=O)COc1c(F)c(F)cc(F)c1F", "nM", 367]
]}

* * *

# TARGET OR SYSTEM: mICE (Mus musculus)
# Sequence (P29452 123-296 limits assumed): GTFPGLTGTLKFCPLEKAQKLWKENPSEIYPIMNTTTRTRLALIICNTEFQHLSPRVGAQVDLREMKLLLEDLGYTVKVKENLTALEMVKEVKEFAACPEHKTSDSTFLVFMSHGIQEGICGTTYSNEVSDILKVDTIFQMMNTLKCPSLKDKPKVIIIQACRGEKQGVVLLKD
# Sequence (P29452 315-402 limits assumed): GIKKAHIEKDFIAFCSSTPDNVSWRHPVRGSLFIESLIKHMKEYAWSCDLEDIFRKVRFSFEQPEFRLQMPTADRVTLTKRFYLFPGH
# ASSAY INFO: Dissociation constant Ki and irreversible rate constant k3 for irreversible inhibitors (ICE)
# Format: biochemical
# MEASUREMENT CONTEXT: continuous assay 60 min, reaction initiated by adding enzyme to substrate-inhibitor mixture
Item-by-item account of Ki

{"columns": ["RECORD SMILES", "Ki, µM"],
 "data": [
  ["C[C@H](NC(=O)C(=O)Nc1ccccc1F)C(=O)N[C@@H](CC(=O)O)C(=O)COC(=O)c1c(Cl)cccc1Cl", 0.116],
  ["CC(C)[C@H](NC(=O)C(=O)Nc1ccccc1)C(=O)N[C@@H](CC(=O)O)C(=O)COc1c(F)c(F)cc(F)c1F", 0.007],
  ["C[C@H](NC(=O)C(=O)Nc1cc(C(C)(C)C)ccc1C(C)(C)C)C(=O)N[C@@H](CC(=O)O)C(=O)COP(=O)(c1ccccc1)c1ccccc1", 0.045],
  ["C[C@H](NC(=O)C(=O)Nc1ccc(F)cc1)C(=O)N[C@@H](CC(=O)O)C(=O)COC(=O)c1c(Cl)cccc1Cl", 1.45],
  ["C[C@H](NC(=O)C(=O)Nc1cc(C(F)(F)F)ccc1N1CCOCC1)C(=O)N[C@@H](CC(=O)O)C(=O)COP(=O)(c1ccccc1)c1ccccc1", 0.019],
  ["CC(C)[C@H](NC(=O)C(=O)Nc1cccc2ccccc12)C(=O)N[C@@H](CC(=O)O)C(=O)COc1ccc(O)cc1", 0.0061],
  ["CC(C)[C@H](NC(=O)C(=O)Nc1ccccc1F)C(=O)N[C@@H](CC(=O)O)C(=O)COc1c(F)c(F)cc(F)c1F", 0.147],
  ["C[C@H](NC(=O)C(=O)NCc1ccccc1)C(=O)N[C@@H](CC(=O)O)C(=O)COc1c(F)c(F)cc(F)c1F", 1.01]
]}

* * *

# TARGET OR SYSTEM: CPP32 (Homo sapiens, UniProt P42574)
# Sequence (P42574 29-175 limits assumed): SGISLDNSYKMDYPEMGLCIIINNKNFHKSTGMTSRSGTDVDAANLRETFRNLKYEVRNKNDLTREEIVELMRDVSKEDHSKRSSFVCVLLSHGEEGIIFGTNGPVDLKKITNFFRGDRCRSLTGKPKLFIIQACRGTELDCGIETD
# Sequence (P42574 176-277 limits assumed): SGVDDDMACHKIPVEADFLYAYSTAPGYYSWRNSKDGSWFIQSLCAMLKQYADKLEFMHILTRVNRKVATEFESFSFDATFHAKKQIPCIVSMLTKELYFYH
# ASSAY INFO: Dissociation constant Ki and irreversible rate constant k3 for irreversible inhibitors (CPP32)
# Format: biochemical
# MEASUREMENT CONTEXT: continuous assay 60 min, reaction initiated by adding enzyme to substrate-inhibitor mixture

{"columns": ["MOLECULE", "CPP32 k3/Ki"],
 "data": [
  ["CC(C)[C@H](NC(=O)C(=O)Nc1ccccc1Br)C(=O)N[C@@H](CC(=O)O)C(=O)COc1c(F)c(F)cc(F)c1F", "276,000 moles^−1 seconds^−1"],
  ["CC(C)[C@H](NC(=O)C(=O)Nc1c(F)cccc1F)C(=O)N[C@@H](CC(=O)O)C(=O)COc1c(F)c(F)cc(F)c1F", "62,900 moles^−1 seconds^−1"],
  ["C[C@H](NC(=O)C(=O)Nc1ccccc1C(C)(C)C)C(=O)N[C@@H](CC(=O)O)C(=O)COP(=O)(c1ccccc1)c1ccccc1 [Example 32]", "327,000 moles^−1 seconds^−1"],
  ["C[C@H](NC(=O)C(=O)Nc1cccc2c1CCCC2)C(=O)N[C@@H](CC(=O)O)C(=O)COP(=O)(c1ccccc1)c1ccccc1 [Example 61]", "157,000 moles^−1 seconds^−1"],
  ["C[C@H](NC(=O)C(=O)NCc1cccc2ccccc12)C(=O)N[C@@H](CC(=O)O)C(=O)COC(=O)c1c(Cl)cccc1Cl", "187,000 moles^−1 seconds^−1"],
  ["C[C@H](NC(=O)C(=O)NCc1cccc2ccccc12)C(=O)N[C@@H](CC(=O)O)C(=O)COP(=O)(c1ccccc1)c1ccccc1", "245,000 moles^−1 seconds^−1"],
  ["C[C@H](NC(=O)C(=O)Nc1ccccc1I)C(=O)N[C@@H](CC(=O)O)C(=O)COP(=O)(c1ccccc1)c1ccccc1", "78,300 moles^−1 seconds^−1"],
  ["CC(C)[C@H](NC(=O)C(=O)NCc1ccccc1)C(=O)N[C@@H](CC(=O)O)C(=O)COc1c(F)c(F)cc(F)c1F", "21,000 moles^−1 seconds^−1"]
]}

* * *

# TARGET OR SYSTEM: MCH-5 (Homo sapiens, UniProt Q14790)
# Sequence (Q14790 217-374 limits assumed, species assumed): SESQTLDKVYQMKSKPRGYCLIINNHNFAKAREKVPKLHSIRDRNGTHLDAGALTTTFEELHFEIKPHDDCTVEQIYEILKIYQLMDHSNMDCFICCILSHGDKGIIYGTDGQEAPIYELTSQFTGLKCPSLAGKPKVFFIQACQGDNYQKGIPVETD
# Sequence (Q14790 385-479 limits assumed, species assumed): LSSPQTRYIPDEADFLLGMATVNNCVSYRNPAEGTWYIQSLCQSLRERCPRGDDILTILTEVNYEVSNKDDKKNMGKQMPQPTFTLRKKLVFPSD
# ASSAY INFO: Dissociation constant Ki and irreversible rate constant k3 for irreversible inhibitors (Mch5)
# Type: biochemical
# MEASUREMENT CONTEXT: continuous assay 60 min, reaction initiated by adding enzyme to substrate-inhibitor mixture
Attribute: Ki

{"columns": ["COMPOUND", "UNIT ABBREVIATION", "Ki"],
 "data": [
  ["C[C@H](NC(=O)C(=O)NCCc1ccccc1)C(=O)N[C@@H](CC(=O)O)C(=O)COP(=O)(c1ccccc1)c1ccccc1 [Example 72]", "nM", 8.1],
  ["CC(C)[C@H](NC(=O)C(=O)Nc1c(F)c(F)nc(F)c1F)C(=O)N[C@@H](CC(=O)O)C(=O)COc1c(F)c(F)cc(F)c1F [Example 102]", "nM", 10],
  ["C[C@H](NC(=O)C(=O)Nc1ccccc1F)C(=O)N[C@@H](CC(=O)O)C(=O)COc1c(F)c(F)cc(F)c1F [Example 66]", "nM", 13]
]}

* * *

# TARGET OR SYSTEM: mICE (Mus musculus)
# ASSAY INFO: Dissociation constant Ki and irreversible rate constant k3 for irreversible inhibitors (ICE)
# Type: biochemical
# MEASUREMENT CONTEXT: continuous assay 60 min, reaction initiated by adding enzyme to substrate-inhibitor mixture

{"columns": ["MOLECULE", "mICE k3/Ki"],
 "data": [
  ["CC(C)[C@H](NC(=O)C(=O)NC(c1ccccc1)c1ccccc1)C(=O)N[C@@H](CC(=O)O)C(=O)COc1c(F)c(F)cc(F)c1F", "201,000 moles^−1 seconds^−1"],
  ["C[C@H](NC(=O)C(=O)Nc1ccccc1I)C(=O)N[C@@H](CC(=O)O)C(=O)COC(=O)c1c(Cl)cccc1Cl [Example 75]", "1,270,000 moles^−1 seconds^−1"],
  ["C[C@H](NC(=O)C(=O)Nc1ccccc1C(C)(C)C)C(=O)N[C@@H](CC(=O)O)C(=O)COC(=O)c1c(Cl)cccc1Cl [Example 37]", "43,300 moles^−1 seconds^−1"],
  ["CC(C)[C@H](NC(=O)C(=O)Nc1ccccc1-c1ccccc1)C(=O)N[C@@H](CC(=O)O)C(=O)COc1c(F)c(F)cc(F)c1F", "127,000 moles^−1 seconds^−1"],
  ["C[C@H](NC(=O)C(=O)Nc1cccc2c1CCCC2)C(=O)N[C@@H](CC(=O)O)C(=O)COC(=O)c1c(Cl)cccc1Cl [Example 49]", "17,600,000 moles^−1 seconds^−1"]
]}

* * *

# TARGET OR SYSTEM: CPP32 (Homo sapiens, UniProt P42574)
# ASSAY INFO: Dissociation constant Ki and irreversible rate constant k3 for irreversible inhibitors (CPP32)
# Type: biochemical
# MEASUREMENT CONTEXT: continuous assay 60 min, reaction initiated by adding enzyme to substrate-inhibitor mixture
EXPERIMENTAL ENDPOINT: CPP32 k3/Ki

{"columns": ["MOLECULE", "TARGET OR SYSTEM", "EXPERIMENTAL ENDPOINT", "REPORTED RESULT"],
 "data": [
  ["C[C@H](NC(=O)C(=O)Nc1cccc2c1CCCC2)C(=O)N[C@@H](CC(=O)O)C(=O)COC(=O)c1c(Cl)cccc1Cl [Example 62]", "CPP32 (Homo sapiens, UniProt P42574)", "CPP32 k3/Ki", "149,000 moles^−1 seconds^−1"],
  ["C[C@H](NC(=O)C(=O)Nc1ccccc1F)C(=O)N[C@@H](CC(=O)O)C(=O)COC(=O)c1c(Cl)cccc1Cl [Example 39]", "CPP32 (Homo sapiens, UniProt P42574)", "CPP32 k3/Ki", "68,900 moles^−1 seconds^−1"],
  ["C[C@H](NC(=O)C(=O)Nc1ccccc1C(C)(C)C)C(=O)N[C@@H](CC(=O)O)C(=O)COP(=O)(c1ccccc1)c1ccccc1 [Example 47]", "CPP32 (Homo sapiens, UniProt P42574)", "CPP32 k3/Ki", "395,000 moles^−1 seconds^−1"],
  ["C[C@H](NC(=O)C(=O)Nc1ccccc1F)C(=O)N[C@@H](CC(=O)O)C(=O)COc1c(F)c(F)cc(F)c1F [Example 66]", "CPP32 (Homo sapiens, UniProt P42574)", "CPP32 k3/Ki", "478,000 moles^−1 seconds^−1"],
  ["CC(C)[C@H](NC(=O)C(=O)Nc1ccncc1)C(=O)N[C@@H](CC(=O)O)C(=O)COc1c(F)c(F)cc(F)c1F [Example 101]", "CPP32 (Homo sapiens, UniProt P42574)", "CPP32 k3/Ki", "511 mol⁻¹ s⁻¹"]
]}
